Target: CtXR (Yamadazyma tenuis)
Construct: gene XYL1; xylose reductase of C. tenuis CBS4435; preparation described only in Additional file 3
Assay: ligand-binding analysis by fluorescence spectroscopy
Conditions: read-out: NADP(H) (R 2) / PP (R 5), UG (R 9), LG (R 10)
Text: ligand-binding analysis by fluorescence spectroscopy on CtXR
assay_endpoint: pKd
The meaning of pKd here: minus log10 of the concentration in molar units.

**Query** What does the data say about its pKd? Entry: NC(=O)c1ccc[n+]([C@@H]2O[C@H](COP(=O)(O)OP(=O)(O)OC[C@H]3O[C@@H](n4cnc5c(N)ncnc54)[C@H](OP(=O)(O)O)[C@@H]3O)[C@@H](O)[C@H]2O)c1 [NADP^+]
**Result** 5.23

* * *

Molecular target: CtXR (Yamadazyma tenuis, UniProt O74237)
Sequence (O74237 1-322): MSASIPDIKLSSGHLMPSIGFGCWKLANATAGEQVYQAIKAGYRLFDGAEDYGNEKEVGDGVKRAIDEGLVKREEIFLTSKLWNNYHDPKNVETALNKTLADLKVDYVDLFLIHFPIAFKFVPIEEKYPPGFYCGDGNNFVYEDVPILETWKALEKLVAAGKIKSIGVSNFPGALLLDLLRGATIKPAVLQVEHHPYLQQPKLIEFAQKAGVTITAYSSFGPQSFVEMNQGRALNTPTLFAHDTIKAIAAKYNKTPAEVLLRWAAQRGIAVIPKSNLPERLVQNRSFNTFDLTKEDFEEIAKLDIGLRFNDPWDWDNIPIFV
assay_endpoint: pKi
Lab note: report pKi as minus log10 of the concentration in molar units, number only.

**Query** Consider the molecule NC(=O)c1ccc[n+]([C@@H]2O[C@H](COP(=O)(O)OP(=O)(O)OC[C@H]3O[C@@H](n4cnc5c(N)ncnc54)[C@H](O)[C@@H]3O)[C@@H](O)[C@H]2O)c1 [NAD^+] and give its measured pKi.
**Result** 3.46

* * *

target: CtG6PDH (Yamadazyma tenuis); construct: native enzyme, probably in cell-free extract of CBS4435 (details only in Additional file 3); test: enzyme kinetics, product inhibition; details: competitive product inhibition; read-out: K i,NADPH
Sequence (G3B8L7 1-502): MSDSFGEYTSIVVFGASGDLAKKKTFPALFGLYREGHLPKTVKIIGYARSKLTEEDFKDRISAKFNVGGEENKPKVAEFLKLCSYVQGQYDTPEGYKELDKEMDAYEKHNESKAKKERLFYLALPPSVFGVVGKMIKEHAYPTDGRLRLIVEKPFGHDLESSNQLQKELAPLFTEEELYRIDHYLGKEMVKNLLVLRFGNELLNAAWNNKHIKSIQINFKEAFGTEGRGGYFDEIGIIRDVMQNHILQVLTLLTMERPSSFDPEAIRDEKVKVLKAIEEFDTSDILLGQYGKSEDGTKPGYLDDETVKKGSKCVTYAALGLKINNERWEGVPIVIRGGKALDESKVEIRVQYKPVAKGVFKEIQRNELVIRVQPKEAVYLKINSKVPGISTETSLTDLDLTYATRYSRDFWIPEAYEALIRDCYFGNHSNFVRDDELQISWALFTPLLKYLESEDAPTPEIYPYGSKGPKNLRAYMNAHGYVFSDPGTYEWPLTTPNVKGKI
assay_endpoint: Ki (µM)
Hi! Could you send only the number? It should be in µM, unit omitted.

**Query** Give its Ki value. Item: NC(=O)C1=CN([C@@H]2O[C@H](COP(=O)(O)OP(=O)(O)OC[C@H]3O[C@@H](n4cnc5c(N)ncnc54)[C@H](OP(=O)(O)O)[C@@H]3O)[C@@H](O)[C@H]2O)C=CC1
**Result** 200
